assay: A CellTox Green Cytotoxicity Assay to monitor cytotoxicity in HEK293 cells - 16 hour (AID 1224888); details: CellTox Green fluorescence; series mostly up to 76.8 µM; further: nearly all actives have a fitted effect of over 35% in size
Inconclusive results are not listed. Activity calls are given as the source filed them. The call rests on the fitted dose curve; in most records, active means well fitted activation curve with a large enough effect in the repeat runs; inconclusive means weak or mixed curves; inactive means flat fitted curve, though single readings scatter.
Labels: active, inactive

compound=Nc1ccc(Oc2ccc(Cl)cc2)cc1 category_label=inactive
compound=Nc1ccc(NCCO)c([N+](=O)[O-])c1 category_label=inactive
compound=CC(C)CCOC(=O)/C=C/c1ccccc1 category_label=inactive
compound="C=CC(C)(CCC=C(C)C)OC=O (stereo not given)" category_label=inactive
compound=CC(C)=CCC1=C(O)c2ccccc2C(=O)C1=O category_label=inactive
compound=Cc1c(C)c([N+](=O)[O-])c(C(C)(C)C)c([N+](=O)[O-])c1C category_label=inactive
compound=O=[N+]([O-])c1ccc(F)c(Cl)c1 category_label=inactive
compound=CCC(=O)OC(=O)CC category_label=inactive
compound="CCC(C)n1ncn(-c2ccc(N3CCN(c4ccc(OC[C@H]5CO[C@](Cn6cncn6)(c6ccc(Cl)cc6Cl)O5)cc4)CC3)cc2)c1=O (stereo not given in full)" category_label=inactive
compound=CC(=O)CC(=O)Nc1ccc(S(=O)(=O)O)cc1 category_label=inactive
compound=O=C1CCCCCCCCCCCCCCCO1 category_label=active
compound=C#C[C@]1(OC(C)=O)CC[C@H]2[C@@H]3CCC4=C[C@@H](OC(C)=O)CC[C@@H]4[C@H]3CC[C@@]21C category_label=inactive
compound=Clc1sc(Cl)c(Cl)c1Cl category_label=inactive
compound=Nc1cc(Cl)c(O)c(Cl)c1 category_label=inactive
compound=O=C(O)c1cccc(C(F)(F)F)c1 category_label=inactive
